# credit: the supplement of paper PMC10567573

B1: TRIM55 (parent)
chain: FQMEKIEHGYENMNHFTVNLNREE

- Variants of: B1
- procedure_summary: protein stability index of a GFP-peptide fusion (GPS, HEK-293T) (PSI 1-6); higher = more stable;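 further: lentivirally expressed fusions sorted by FACS into six bins by GFP to DsRed ratio, PSI derived from sequencing read proportions per bin multiplied by bin number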
- reported_conditions: c terminus: a fixed tail appended
As shown below, each of these variants has a reported protein stability index value.
observable: protein stability index

sequence_entry="FQMEKIEHGYENMNHFTVNLNPEE [R22P]" observable="protein stability index" measured_result=2.99
sequence_entry="FQMEKIEHGHENMNHFTVNLNREE [Y10H]" observable="protein stability index" measured_result=2.94
sequence_entry="FQMEKYEHGYENMNHFTVNLNREE [I6Y]" observable="protein stability index" measured_result=2.97
sequence_entry="FQMEKIEHGYEGMNHFTVNLNREE [N12G]" observable="protein stability index" measured_result=2.98
sequence_entry="FQMEKIEHGYENMNHFTVNLNREQ [E24Q]" observable="protein stability index" measured_result=3
sequence_entry="FQMEKIEHGYENMNHWTVNLNREE [F16W]" observable="protein stability index" measured_result=1.96
sequence_entry="FQMEKIEHGYENMNHFTVNLNTEE [R22T]" observable="protein stability index" measured_result=2.99
